Measured Kd, listed per entry for reference.
Target: T1, EsCas13d, nuclease-dead (Eubacterium siraeum, UniProt B0MS50, R295A;H300A;R849A;H854A)
T1 sequence: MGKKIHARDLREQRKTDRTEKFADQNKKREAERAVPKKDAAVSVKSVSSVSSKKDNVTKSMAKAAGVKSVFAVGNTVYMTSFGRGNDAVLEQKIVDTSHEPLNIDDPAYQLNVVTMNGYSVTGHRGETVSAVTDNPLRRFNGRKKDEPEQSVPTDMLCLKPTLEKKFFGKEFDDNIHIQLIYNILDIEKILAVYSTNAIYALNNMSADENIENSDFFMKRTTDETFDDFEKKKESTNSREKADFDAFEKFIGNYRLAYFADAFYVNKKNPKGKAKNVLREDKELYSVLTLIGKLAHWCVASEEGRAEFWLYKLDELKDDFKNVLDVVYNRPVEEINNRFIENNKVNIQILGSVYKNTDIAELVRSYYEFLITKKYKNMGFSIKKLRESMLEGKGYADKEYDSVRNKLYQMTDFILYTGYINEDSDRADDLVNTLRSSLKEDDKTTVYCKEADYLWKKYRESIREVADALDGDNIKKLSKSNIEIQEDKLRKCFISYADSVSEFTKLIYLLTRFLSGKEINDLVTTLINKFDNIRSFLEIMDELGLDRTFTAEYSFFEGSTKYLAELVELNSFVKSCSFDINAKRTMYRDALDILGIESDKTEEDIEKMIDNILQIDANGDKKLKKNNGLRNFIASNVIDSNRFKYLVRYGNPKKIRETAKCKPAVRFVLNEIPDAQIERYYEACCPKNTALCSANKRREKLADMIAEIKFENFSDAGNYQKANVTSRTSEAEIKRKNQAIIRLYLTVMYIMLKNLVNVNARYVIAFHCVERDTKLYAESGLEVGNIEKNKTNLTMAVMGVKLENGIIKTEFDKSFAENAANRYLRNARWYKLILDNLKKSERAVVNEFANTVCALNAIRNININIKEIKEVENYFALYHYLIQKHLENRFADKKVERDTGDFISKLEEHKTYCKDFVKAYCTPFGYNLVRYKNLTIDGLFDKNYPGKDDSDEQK
Assay: crRNA (strand 1, pre-loaded); Mg2+; 40 mM Tris-HCl pH 7.5, 150 mM NaCl, 6 mM MgCl2, 1 mM DTT, 0.1% Tween-20, 0.2 mg/ml BSA; 25 C; 10 min per concentration, then washed
Conditions: tags: His6-TwinStrep-SUMO cleaved; N-terminal SNAP kept (SNAP-Surface 488); label: 3' end held by stalled T7 RNA polymerase
# output: number + unit

Kd measured on target 1 insA 3' of 12,insU 3' of 2 (mixed) RNA 1: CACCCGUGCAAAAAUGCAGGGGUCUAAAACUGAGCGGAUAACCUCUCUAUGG RNA 2: GGGAAUGGAUCCACAUCUACGAAUUCGUACCAUAGAGAGGAUUAUCCGCUCUACCGAGAUCGGAAGAGCACACGU = 40 nM
